Form field: AC50 (one value per entry).
- System: Clone20 osteoblast Shn3 3'UTR firefly luciferase, 24 h
- measurement.protocol: Shn3 3'UTR reporter inhibitors, dose response, cell-based, Clone20 osteoblasts, luminescence, dry powder, set 2 (AID 743417)
Inconclusive results are not listed.

Answered cases to consult:
| molecule | AC50 |
| --- | --- |
| CC1C(=O)N(Cc2cn(CCC3OCCCO3)nn2)CCS(=O)(=O)N1Cc1ccc(-c2ccc(Cl)c(Cl)c2)cc1 (stereo not drawn) | 3390 nM |
| CCc1ccc(OCCNc2cc(N3CCNC(C)C3)ccc2[N+](=O)[O-])cc1 (stereo not drawn) | 15600 nM |
| CC(C)(C)C(=O)/C(=C/c1ccncc1)n1cncn1 | 3270 nM |
| COc1cc(C2c3cc4c(cc3C(OC3OC5COC(c6cccs6)OC5C(O)C3O)C3COC(=O)C23)OCO4)cc(OC)c1O (stereo not drawn) | 1110 nM |
| Cc1cccc(CSc2cccc3cccnc23)c1 | 2540 nM |
| O=C(Cc1ccc(Cl)cc1Cl)Nc1ccncc1Cl | 1630 nM |
| COc1ccc(CNC(=O)c2nc(S(=O)(=O)Cc3ccccc3)ncc2Cl)cc1 | 956 nM |

Q) Quick check: AC50 of CC(C)n1c(/C=C/[C@@H](O)C[C@@H](O)CC(=O)O)c(-c2ccc(F)cc2)c2ccccc21 ?
A) 2400 nM

---

- Test system: Clone20 osteoblast Shn3 3'UTR firefly luciferase, 24 h
- measurement.protocol: Shn3 3'UTR reporter inhibitors, dose response, cell-based, Clone20 osteoblasts, luminescence, dry powder, set 2 (AID 743417)
Inconclusive results are not listed.
reported.property: AC50

| compound | test.result |
| --- | --- |
| CCCCOCCCNc1ncnc2c1[nH]c1ccccc12 | 1050 nM |
| C=C(C)C(=O)O[C@H]1C/C(C)=C\C(=O)/C=C(\C)[C@H](O)[C@@H]2OC(=O)C(=C)[C@@H]21 | 3020 nM |
| Cc1cc(C(=O)CSc2nc(N)cc(=O)[nH]2)c(C)n1-c1cccc(F)c1 | 1660 nM |
| CSC1SCC2C(=O)N(C)C(C(C)C)C(=O)OCC(NC(=O)c3cnc4ccccc4n3)C(=O)NC(C)C(=O)N(C)C1C(=O)N(C)C(C(C)C)C(=O)OCC(NC(=O)c1cnc3ccccc3n1)C(=O)NC(C)C(=O)N2C (configuration not stated) | < 260 nM |
| C=CCC[C@H](Cc1ccc(F)cc1)C(=O)OC[C@@H](Cc1c[nH]c2ccccc12)NC(=O)[C@H](CC=C)CC(=O)N(CCO)Cc1ccccc1 | 8660 nM |
| CC(C)Oc1ccc(S(=O)(=O)N2CCCCC2)cc1NC(=O)CN1CCCC1c1cccs1 (configuration not stated) | 7880 nM |
| CCCN1C(=O)S/C(=C\c2ccc(N3CCOCC3)o2)C1=O | 6370 nM |
| NC(=Nc1nc(-c2ccccn2)cc2ccccc12)c1ccccn1 | < 260 nM |

Q) Quick check: AC50 of CC(=O)NC(c1cc(Cl)c2cccnc2c1O)C(C)C (configuration not stated) ?
A) 2960 nM

Q) And for CCN(CC)c1ccc(NC(=O)CN2C(=O)CSc3ncccc32)c(C)c1 ?
A) 1780 nM

Q) And for Cc1ccc(-c2nnc(N3CCC(C)CC3)c3ccccc23)cc1C ?
A) 6410 nM

---

Form field: AC50 (one value per entry).
- System: Clone20 osteoblast Shn3 3'UTR firefly luciferase, 24 h
- measurement.protocol: Shn3 3'UTR reporter inhibitors, dose response, cell-based, Clone20 osteoblasts, luminescence, dry powder, set 2 (AID 743417)
Inconclusive results are not listed.

Q) Quick check: AC50 of CC(C)(C)c1ccc(NC(=O)COc2ccc(-n3ccnc3)cc2)cc1 ?
A) 5.27 µM

Q) And for CC(=O)c1cccc(NS(=O)(=O)c2ccc(N/C=C\C(=O)c3ccc(C)cc3)cc2)c1 ?
A) 1.51 µM

Q) And for CN(C)CCNC(=O)c1cccc2nc3cccc(F)c3nc12 ?
A) 13.7 µM

Q) And for COc1ccc(CS(=O)(=O)/C(Cl)=C(/Cl)C(=O)Nc2ccc(OC)nc2)cc1 ?
A) < 0.26 µM

---

Form field: AC50 (one value per entry).
- System: Clone20 osteoblast Shn3 3'UTR firefly luciferase, 24 h
- measurement.protocol: Shn3 3'UTR reporter inhibitors, dose response, cell-based, Clone20 osteoblasts, luminescence, dry powder, set 2 (AID 743417)
Inconclusive results are not listed.

Answered cases to consult:
| compound | AC50 |
| --- | --- |
| Cc1ccc(C(=O)Nc2cnc3ccccc3c2)cc1 | 4.04 µM |
| COc1ccc(Cn2c(SCc3cc(C)ccc3C)nc3cc(OC)c(OC)cc3c2=N)cc1 | 7.91 µM |
| COc1ccc(-n2nnnc2S(=O)(=O)CC(=O)N2CCCCC2)cc1 | 5.44 µM |
| COc1ccc(CNCCC(c2ccc(OC(C)C)cc2)c2ccccc2OC)cc1OC (stereo not drawn) | 4.35 µM |
| NC1=NC[C@H](c2ccccc2)N1CCCCC1CCCCC1 | 4.23 µM |

Q) Quick check: AC50 of Cc1ccc(S(=O)(=O)c2ncccc2[N+](=O)[O-])cc1 ?
A) 1.91 µM

Q) And for O=C(Nc1ccccc1)Nc1cc(OCC(F)(F)F)cc(OCC(F)(F)F)c1 ?
A) 6.4 µM

Q) And for O=S(=O)(c1ccc(Cl)cc1)N1CCN(c2ncnc3sccc23)CC1 ?
A) 3.04 µM

---

Form field: AC50 (one value per entry).
- Test system: Clone20 osteoblast Shn3 3'UTR firefly luciferase, 24 h
- measurement.protocol: Shn3 3'UTR reporter inhibitors, dose response, cell-based, Clone20 osteoblasts, luminescence, dry powder, set 2 (AID 743417)
Records with an inconclusive call do not appear.

Answered cases to consult:
| compound | AC50 |
| --- | --- |
| Cc1nc2ccccc2cc1OCc1ccc(F)cc1 | 1700 nM |
| CCOC(=O)C1CCN(S(=O)(=O)c2c(Cl)ccc3nonc23)CC1 | 919 nM |
| CCOC(=O)C1(Cc2cccc(OC)c2)CCN(C/C=C/c2ccc(OC)cc2)CC1 | 4750 nM |
| Oc1c(C(Nc2cccc(C(F)(F)F)c2)c2ccncc2)ccc2cccnc12 (stereo unspecified) | 5800 nM |
| CCN(CC)S(=O)(=O)c1ccc(N2CCOCC2)c(NC(=O)c2nn(C(C)C)c(=O)c3ccccc23)c1 | 15600 nM |
| CCC(O)C1CCN(C(=O)c2cc(COc3ccc4ncccc4c3)on2)CC1 (stereo unspecified) | 505 nM |
| CCN(CC)c1ccc(CNc2nc3ccccc3n2CCN2CCCCC2)cc1 | 2640 nM |
| CC(=O)NC(c1ccc(Cl)cc1)c1ccc2cccnc2c1O (stereo unspecified) | 299 nM |

Q) Quick check: AC50 of CCC(CC)CC1CN2CCc3cc(OC)c(OC)cc3C2CC1(O)CC (stereo unspecified) ?
A) 2000 nM

Q) And for CC(C)(C)c1ccc(C(O)CCCN2CCC(C(O)(c3ccccc3)c3ccccc3)CC2)cc1 (stereo unspecified) ?
A) 16700 nM

Q) And for CCn1cc(CN(C)S(=O)(=O)c2ccc3ccccc3c2)c(C)n1 ?
A) 1560 nM

---

- Test system: Clone20 osteoblast Shn3 3'UTR firefly luciferase, 24 h
- measurement.protocol: Shn3 3'UTR reporter inhibitors, dose response, cell-based, Clone20 osteoblasts, luminescence, dry powder, set 2 (AID 743417)
Records with an inconclusive call do not appear. Calls of active or inactive are those of the source.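 Rule for the calls: active = compounds lowering the luciferase signal with a fitted half-maximal dose at most twice their top valid dose (cut at about 30 µM in these data); inconclusive = flat fits with moderate signal loss, or poor fits; inactive = the rest.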
Outcome field: choose from Yes for active, No for inactive

Record excerpt, results attached:
| compound | cat |
| --- | --- |
| CCOC(=O)N1CCC(NC(=O)C2CCCN(Cc3nc(-c4cccc(Cl)c4)oc3C)C2)CC1 (configuration not stated) | Yes |
| COc1ccc(S(=O)(=O)N(C)C)cc1NC(=O)C1CCN(c2ncnc3sc(C)c(C)c23)CC1 | Yes |
| C=C1C(=O)C23CCC4C(C)(C(=O)OC)CCCC4(C)C2CCC1(O)C3 (configuration not stated) | Yes |
| c1ccc2c(-c3[nH]ncc3CNCCCn3ncc4ccccc43)cccc2c1 | Yes |
| CCCCOc1ccc(Br)cc1CSC(=N)N | Yes |
| O=C(/C=C/c1ccccc1)NC(NC(=S)Nc1ccc(Cl)cc1)C(Cl)(Cl)Cl (configuration not stated) | Yes |
| Cc1ccc(NC(=O)c2oc3ccccc3c2COC(C)C)cc1S(=O)(=O)N1CCOCC1 | Yes |
| COc1ccc(C(CCNCc2ccc(OC(C)C)cc2)c2ccccc2OC)cc1 (configuration not stated) | Yes |
| NS(=O)(=O)c1ccc(CCNc2nn3c(-c4cccc(OC(F)(F)F)c4)cnc3s2)cc1 | Yes |
| COc1ccc(CC(N)c2csc(NC(=O)Nc3ccc(C(C)C)cc3)n2)cc1 (configuration not stated) | Yes |

Q) Call for entry O=C(Nc1ccc(N2CCOCC2)c(Cl)c1)c1ccc([N+](=O)[O-])o1 :
A) Yes

Q) And for CC[C@]12c3[nH]c4cc(CCC(=O)N(C)C)ccc4c3CCN1C(=O)[C@@H](CC(=O)NC/C=C(\C)CCC=C(C)C)C[C@@H]2C(=O)N1CCN(C(=O)c2ccco2)CC1 ?
A) Yes

Q) And for CC1Cc2cc(S(=O)(=O)N3CCC(C(=O)N4CCN(c5ccccc5F)CC4)CC3)ccc2N1C(=O)C1CC1 (configuration not stated) ?
A) Yes

Q) And for Cc1ccnc(N/C=C(/NC(=O)c2ccccc2)C(=O)N/N=C\c2ccc(F)cc2)n1 ?
A) No

Q) And for CS(=O)(=O)c1nc(-c2ccc(F)cc2)cc(C(F)(F)F)n1 ?
A) Yes

Q) And for C[C@@H]1CCCCO[C@H](CN(C)Cc2ccccc2)[C@@H](C)CN([C@H](C)CO)C(=O)c2cc(NC(=O)c3ccccc3)ccc2O1 ?
A) Yes

Q) And for O=C(OCCN1C(=O)c2cccc3c(N4CCOCC4)ccc(c23)C1=O)c1ccccc1Cl ?
A) Yes
